- Test system: Hs-578T
- experiment notes: NCI tumour cell line growth inhibition, 48 h
Activity calls are given as the source filed them. Rule as the data show it: active = GI50 up to about 1.1 µM and inactive = higher.
measured endpoint: GI50

Example results:
CC1=C(/C=C/C(C)=C/C=C/C(C)=C/C(=O)OCC2OC(n3cc(F)c(=O)[nH]c3=O)CC2OC(=O)/C=C(C)/C=C/C=C(C)/C=C/C2=C(C)CCCC2(C)C)C(C)(C)CCC1 (stereo not given) = 9.25 µM (inactive)
C=CCC(CCC(C)=O)(C(=O)OCC)C(=O)OCC = > 100 µM (inactive)
CS[C@]12C(=O)C[C@@]3(C)[C@@H](CC[C@]3(O)C(=O)CO)[C@@H]1CCC1=CC(=O)CC[C@@]12C = > 100 µM (inactive)
O=c1[nH]nc(-c2cccc(Br)c2)[nH]1 = 18.2 µM (inactive)
CC(C)(C)OC(=O)NC(Cc1ccc(O)cn1)C(=O)O (stereo not given) = > 100 µM (inactive)

Ask: Need GI50 of CCc1cn(C2CC(CO)C(CO)S2)c(=O)[nH]c1=O (stereo not given) , thanks.
Reply: > 100 µM (inactive)

Ask: Then CC(C)(C)c1cc([N+](=O)[O-])cc([N+](=O)[O-])c1O ?
Reply: 8.71 µM (inactive)

Ask: Same thing, different molecule: COc1ccc2sc(-n3nc4ccccc4c3Nc3nc4ccc(OC)cc4s3)nc2c1
Reply: 1.46 µM (inactive)

Ask: Now give it for O=C1NCCCNCCCNCCCNC(=O)c2cccc1n2 too.
Reply: > 100 µM (inactive)

Ask: Please give the result for C/C(=N\Nc1nc2ccccc2s1)c1cccnn1 too.
Reply: 12.1 µM (inactive)

Ask: O=CNC(Cc1c[nH]cn1)C(=O)O (stereo not given) , same question.
Reply: > 100 µM (inactive)

Ask: How about Cc1ccc(/N=N/C(=N/c2ccccc2)c2ccc(N(CCC#N)CCC#N)cc2)cc1 ?
Reply: 37 µM (inactive)

Ask: Another molecule: C\C(=N/N=C1/C(=C\N(C)C)C(=O)NC(=O)N1C)c1ccc(Cl)cc1
Reply: > 100 µM (inactive)

Ask: Also check CCC1=NC(N/N=C/c2ccccc2O)=N/C1=C\c1ccccc1O
Reply: 23.9 µM (inactive)

Ask: Also CCOC(=O)C1=C(C)NC(=O)NC1c1coc2cc(C)cc(C)c2c1=O (stereo not given) , if possible.
Reply: 56.2 µM (inactive)

Ask: Another molecule to check: CC(C)CCC[C@@H](C)[C@H]1CC[C@H]2[C@@H]3CC=C4C[C@@H](OC(=O)c5cccc6c(=O)c7ccccc7[nH]c56)CC[C@]4(C)[C@H]3CC[C@]12C
Reply: > 75 µM (inactive)

Ask: Same question for O=C1C=CC(=O)C(CNc2ccc(C(=O)OCc3ccccc3)cc2)=C1 please.
Reply: 6.12 µM (inactive)

Ask: Moving on to CN(C)CC1CC/C(=C\c2ccc3c(c2)OCO3)C1=O (stereo not given)
Reply: 4.38 µM (inactive)

Ask: Item: N=C1OC(c2c[nH]c3ccc(OCc4ccccc4)cc23)C(O)=C1O (stereo not given)
Reply: > 100 µM (inactive)

Ask: Another molecule to check: c1ccc(C(CCN2CC3CCC(CC3)C2)c2ccccc2)cc1
Reply: 24 µM (inactive)

====

Reported GI50 is given for each of the following compounds.
- Tested on: UACC-62
- experiment notes: NCI tumour cell line growth inhibition, 48 h
Active and inactive are the calls of the source. No stated cut-off is given here; in the data, active = GI50 up to about 1.1 µM and inactive = higher.

Sample records with GI50:
Cc1cc(=O)[nH]c2cc(NC(=O)C(C)NC(=O)C(C)NC(=O)C(C)NC(=O)OC(C)(C)C)ccc12 (stereo unspecified) = > 15 µM (inactive)
Cc1cccc(C2=NC(C)(C)C(C)(C)N=C2c2cccc(C)n2)n1 = > 100 µM (inactive)
O=C(O)C1=NN=C(C(=O)O)NN1 = > 100 µM (inactive)
C=C(COC(C)=O)CC(/C=C(\C)CC/C=C(\C)CO)OC(C)=O (stereo unspecified) = > 100 µM (inactive)
COc1cccc(N2C(=O)c3c(c4[nH]c5ccccc5c4c4ccc(C(C)(C)C)cc34)C2=O)c1 = > 100 µM (inactive)

Ask: Item: CC1=CC(=O)N(n2c(Cc3ccccc3)n[nH]c2=O)C1=O Test system: UACC-62 Read-out: GI50 Value: ?
Reply: > 100 µM (inactive)

Ask: Likewise for O=C1/C(=C/c2cccc3ccccc23)Cc2ccccc21 ?
Reply: 22.4 µM (inactive)

Ask: Also check O=S(=O)(O)c1cc(S(=O)(=O)O)c2c(/N=N/c3cccc4ccccc34)c(O)ccc2c1
Reply: > 100 µM (inactive)

Ask: Then S=c1[nH]c2ccc(Br)cc2c(=S)s1 ?
Reply: 18 µM (inactive)

Ask: // repeat for CCC1NC(=O)C(NC(=O)c2ncccc2O)C(C)OC(=O)C(c2ccccc2)NC(=O)C2CC(=O)CCN2C(=O)C(Cc2ccccc2)N(C)C(=O)C2CCCN2C1=O (stereo unspecified) and report
Reply: > 100 µM (inactive)

Ask: Now consider Nc1ncc(Cc2nn3c(COc4ccc(Cl)cc4)nnc3s2)s1 .
Reply: > 100 µM (inactive)

Ask: And then Nc1ccc(CCN2CCN(CCCc3ccccc3)CC2)cc1 , what is it?
Reply: > 100 µM (inactive)

Ask: Also CN(C)C(=O)CC(C(=O)O)c1c[nH]c2ccccc12 (stereo unspecified) ?
Reply: > 100 µM (inactive)

Ask: Also need CC(=O)N/C(=C\c1cccc([N+](=O)[O-])c1)c1nc2ccc3c(c2[nH]1)C(=O)c1ccccc1C3=O , thanks.
Reply: > 49.8 µM (inactive)

Ask: And then CCOC(=O)c1sc2nc(SC)nc3c2c1NCN3c1ccccc1Cl , what is it?
Reply: 37.4 µM (inactive)

Ask: Moving on to COc1ccc2sc(-n3nc4ccccc4c3Nc3nc4ccc(OC)cc4s3)nc2c1
Reply: 2.95 µM (inactive)

Ask: Quick one: OC1(C(Sc2cc(C(F)(F)F)cc(C(F)(F)F)c2)Sc2cc(C(F)(F)F)cc(C(F)(F)F)c2)C=CCCC1 (stereo unspecified)
Reply: 1.99 µM (inactive)

Ask: COC(=O)CC[N+]1([O-])CC1 , same question.
Reply: > 100 µM (inactive)

Ask: Then what about the compound COc1ccc(C2Oc3cc(OC)c(OC)cc3C2CCl)cc1OC (stereo unspecified) ?
Reply: 25.6 µM (inactive)

Ask: Same again, this time with COC(=O)C1=C(C(=O)OC)C2(OC(C)=O)c3ccccc3-c3ccccc3C12 (stereo unspecified)
Reply: 11 µM (inactive)

Ask: And COc1ccc2c(c1)CC1c3c(ccc(OC)c3O)CC2N1C (stereo unspecified) ?
Reply: 47.4 µM (inactive)

====

- Test system: MCF7
- experiment notes: NCI tumour cell line growth inhibition, 48 h
Active and inactive are the calls of the source. No stated cut-off is given here; in the data, active = GI50 up to about 1.1 µM and inactive = higher.
measured endpoint: GI50

Some molecules with known GI50 results, for comparison:
N#Cc1ccc(C2ON=C(c3ccccc3)N2C23CC4CC(CC(C4)C2)C3)cc1 (configuration not stated) = > 10 µM (inactive)
COC(=O)CCCc1ccc2c(c1)CCC2 = > 100 µM (inactive)
NC(Cc1ccc(N(CCCl)CCCl)cc1)C(=O)NC(CCC(=O)O)C(=O)O (configuration not stated) = > 100 µM (inactive)

Ask: Which measured GI50 value corresponds to O=[N+]([O-])/C(C(Cl)=C(Cl)Cl)=C1/OCCS1 ?
Reply: 61.4 µM (inactive)

Ask: Here is the next molecule: C/C(=N\NC(=S)N1CCCCCCCCCCCC1)c1ccccn1
Reply: 0.0865 µM (active)

Ask: Try this molecule next: O=C1C=CC(=O)C(CNc2ccc(C(=O)OCc3ccccc3)cc2)=C1
Reply: 4.57 µM (inactive)

Ask: Please answer likewise for O=[N+]([O-])c1ccc(/C(=N/c2ccccc2)SS/C(=N\c2ccccc2)c2ccc([N+](=O)[O-])o2)o1
Reply: 0.444 µM (active)

Ask: Another molecule: O=C(O)[C@H](Cc1ccccc1)NCCN1CCC[C@H]1C(=O)O
Reply: > 100 µM (inactive)

Ask: Follow-up item: Cc1cn(Cc2ccccc2CCl)c(=O)[nH]c1=O
Reply: 4.84 µM (inactive)

Ask: Now the same for CC(C)(C)c1cc([N+](=O)[O-])cc([N+](=O)[O-])c1O [DINOTERB]
Reply: > 10 µM (inactive)

Ask: Also, O=C(O)CCNCC(=O)O please.
Reply: > 100 µM (inactive)

Ask: What about this molecule? OC(Cc1cnnc2ccccc12)C(Cl)(Cl)Cl (configuration not stated)
Reply: > 10 µM (inactive)

Ask: What do you get for Cc1cc(C)n(CC(Cn2nc(C)cc2C)=C(/C(Cl)=C(/Cl)Nc2ccc([N+](=O)[O-])cc2)[N+](=O)[O-])n1 ?
Reply: 3.71 µM (inactive)

Cited source for all entries: ChEMBL document CHEMBL1201862
